# Assay Target: UniProt Q06518
# Sequence (Q06518 whole entry): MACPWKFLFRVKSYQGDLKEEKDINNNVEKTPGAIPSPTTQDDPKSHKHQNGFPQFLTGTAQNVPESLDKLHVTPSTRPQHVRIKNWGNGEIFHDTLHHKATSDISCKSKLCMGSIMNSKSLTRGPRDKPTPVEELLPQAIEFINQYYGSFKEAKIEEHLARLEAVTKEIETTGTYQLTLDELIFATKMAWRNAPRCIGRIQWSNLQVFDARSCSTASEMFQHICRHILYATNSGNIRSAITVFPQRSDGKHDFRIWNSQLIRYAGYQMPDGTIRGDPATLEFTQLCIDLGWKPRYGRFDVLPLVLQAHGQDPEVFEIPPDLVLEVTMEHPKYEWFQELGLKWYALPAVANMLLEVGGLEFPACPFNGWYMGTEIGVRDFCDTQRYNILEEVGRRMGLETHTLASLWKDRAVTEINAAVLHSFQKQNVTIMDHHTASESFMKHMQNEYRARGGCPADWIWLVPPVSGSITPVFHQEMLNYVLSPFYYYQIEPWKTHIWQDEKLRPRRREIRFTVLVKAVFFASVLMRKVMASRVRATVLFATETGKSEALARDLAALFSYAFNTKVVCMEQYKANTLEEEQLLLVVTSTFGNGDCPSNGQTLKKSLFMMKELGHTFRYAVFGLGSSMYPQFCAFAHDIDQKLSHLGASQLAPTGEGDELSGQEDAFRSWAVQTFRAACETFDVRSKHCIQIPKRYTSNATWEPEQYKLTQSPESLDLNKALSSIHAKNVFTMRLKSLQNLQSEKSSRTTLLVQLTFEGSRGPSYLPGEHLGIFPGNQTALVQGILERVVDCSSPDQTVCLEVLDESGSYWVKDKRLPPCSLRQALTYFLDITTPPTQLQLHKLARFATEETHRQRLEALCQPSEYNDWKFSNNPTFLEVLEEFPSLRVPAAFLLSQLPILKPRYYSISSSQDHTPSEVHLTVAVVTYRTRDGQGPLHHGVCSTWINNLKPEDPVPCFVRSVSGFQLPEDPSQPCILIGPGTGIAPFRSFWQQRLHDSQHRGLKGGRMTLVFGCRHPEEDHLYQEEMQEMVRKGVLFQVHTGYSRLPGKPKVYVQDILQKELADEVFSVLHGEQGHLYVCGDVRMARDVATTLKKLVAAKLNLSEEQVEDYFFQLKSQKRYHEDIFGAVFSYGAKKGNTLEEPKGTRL
Measured Quantity: IC50

* CN(C)CCN1CCCCc2cc(NC(=N)c3cccs3)ccc21.Cl.Cl | > 100 µM

---

# Assay Target: Nitric oxide synthase 3 (Homo sapiens, UniProt P29474)
# Sequence (P29474 whole entry): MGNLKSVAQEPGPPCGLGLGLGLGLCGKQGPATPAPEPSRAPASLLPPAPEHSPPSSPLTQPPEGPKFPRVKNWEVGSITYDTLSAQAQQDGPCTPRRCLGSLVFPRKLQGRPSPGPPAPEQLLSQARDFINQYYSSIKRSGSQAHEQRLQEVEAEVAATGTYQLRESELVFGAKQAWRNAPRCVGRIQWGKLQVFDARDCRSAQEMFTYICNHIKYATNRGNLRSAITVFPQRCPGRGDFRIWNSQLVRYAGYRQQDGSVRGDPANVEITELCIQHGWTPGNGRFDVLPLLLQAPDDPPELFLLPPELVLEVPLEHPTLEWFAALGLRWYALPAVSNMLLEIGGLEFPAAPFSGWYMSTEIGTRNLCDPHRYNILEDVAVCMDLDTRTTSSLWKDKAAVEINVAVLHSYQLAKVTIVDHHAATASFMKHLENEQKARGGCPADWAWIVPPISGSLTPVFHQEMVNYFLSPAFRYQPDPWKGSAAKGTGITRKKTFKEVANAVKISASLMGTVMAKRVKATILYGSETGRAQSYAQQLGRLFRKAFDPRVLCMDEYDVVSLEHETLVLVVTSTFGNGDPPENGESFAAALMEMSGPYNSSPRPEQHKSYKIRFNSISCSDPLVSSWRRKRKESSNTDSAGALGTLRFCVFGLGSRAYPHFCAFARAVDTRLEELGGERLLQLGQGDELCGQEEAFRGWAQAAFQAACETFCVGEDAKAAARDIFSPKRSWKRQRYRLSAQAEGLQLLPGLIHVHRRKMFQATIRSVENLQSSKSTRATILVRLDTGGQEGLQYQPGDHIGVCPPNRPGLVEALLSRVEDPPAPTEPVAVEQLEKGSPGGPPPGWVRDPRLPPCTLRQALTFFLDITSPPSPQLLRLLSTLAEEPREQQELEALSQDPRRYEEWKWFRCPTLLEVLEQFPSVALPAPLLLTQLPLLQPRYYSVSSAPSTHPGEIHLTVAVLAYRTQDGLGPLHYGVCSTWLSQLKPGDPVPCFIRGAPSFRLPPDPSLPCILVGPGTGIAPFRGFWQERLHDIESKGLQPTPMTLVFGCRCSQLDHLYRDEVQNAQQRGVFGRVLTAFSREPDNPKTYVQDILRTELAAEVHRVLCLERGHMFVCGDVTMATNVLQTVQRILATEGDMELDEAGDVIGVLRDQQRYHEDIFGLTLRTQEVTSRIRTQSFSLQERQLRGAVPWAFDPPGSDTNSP
# Method Notes: Inhibition of human recombinant eNOS expressed in baculovirus infected insect sf9 cells assessed as conversion of [3H]-L-arginine into [3H]-L-citrulline by radiometric method
Measured Quantity: IC50 (µM)

* N=C(Nc1ccc2c(c1)CCCCN2CCN1CCCC1)c1cccs1 | 82.2

---

# Assay Target: Nitric oxide synthase 1 (Homo sapiens, UniProt P29475)
# Sequence (P29475 whole entry): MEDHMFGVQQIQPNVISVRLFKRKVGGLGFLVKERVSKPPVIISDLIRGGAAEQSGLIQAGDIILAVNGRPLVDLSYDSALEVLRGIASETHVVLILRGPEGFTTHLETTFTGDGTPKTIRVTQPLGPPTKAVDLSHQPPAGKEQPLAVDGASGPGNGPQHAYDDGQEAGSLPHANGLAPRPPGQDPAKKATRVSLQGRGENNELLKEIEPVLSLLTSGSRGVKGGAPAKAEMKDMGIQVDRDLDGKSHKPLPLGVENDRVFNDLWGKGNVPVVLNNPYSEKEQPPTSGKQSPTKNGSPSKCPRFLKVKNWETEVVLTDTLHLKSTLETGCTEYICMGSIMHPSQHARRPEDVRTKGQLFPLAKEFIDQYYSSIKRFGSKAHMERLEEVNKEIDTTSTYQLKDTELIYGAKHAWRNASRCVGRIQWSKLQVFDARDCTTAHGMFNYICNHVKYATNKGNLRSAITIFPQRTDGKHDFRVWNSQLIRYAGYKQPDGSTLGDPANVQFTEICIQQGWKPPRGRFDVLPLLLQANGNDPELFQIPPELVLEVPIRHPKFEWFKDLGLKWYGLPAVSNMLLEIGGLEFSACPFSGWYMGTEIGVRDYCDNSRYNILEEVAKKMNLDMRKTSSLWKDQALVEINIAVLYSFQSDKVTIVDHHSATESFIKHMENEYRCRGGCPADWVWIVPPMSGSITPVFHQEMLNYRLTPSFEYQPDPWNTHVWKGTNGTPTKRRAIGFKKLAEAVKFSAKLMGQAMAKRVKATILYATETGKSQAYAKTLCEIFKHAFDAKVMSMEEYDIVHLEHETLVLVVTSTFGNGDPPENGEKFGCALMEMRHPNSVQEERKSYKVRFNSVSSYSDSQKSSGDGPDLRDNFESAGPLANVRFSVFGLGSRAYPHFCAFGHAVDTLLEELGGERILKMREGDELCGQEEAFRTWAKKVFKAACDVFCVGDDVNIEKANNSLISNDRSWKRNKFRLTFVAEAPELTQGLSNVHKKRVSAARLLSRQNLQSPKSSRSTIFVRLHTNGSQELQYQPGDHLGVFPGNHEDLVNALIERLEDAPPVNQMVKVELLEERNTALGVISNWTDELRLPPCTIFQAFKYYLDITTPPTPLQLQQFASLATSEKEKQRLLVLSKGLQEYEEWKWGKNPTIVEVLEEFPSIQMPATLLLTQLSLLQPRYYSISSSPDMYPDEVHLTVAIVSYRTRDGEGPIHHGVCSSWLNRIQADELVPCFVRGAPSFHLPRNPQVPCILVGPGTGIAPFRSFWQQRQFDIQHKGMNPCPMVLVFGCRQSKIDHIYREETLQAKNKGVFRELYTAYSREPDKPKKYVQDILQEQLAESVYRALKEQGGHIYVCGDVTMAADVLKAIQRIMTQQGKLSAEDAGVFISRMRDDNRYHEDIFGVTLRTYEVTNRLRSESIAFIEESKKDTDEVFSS
# Method Notes: Inhibition of human recombinant nNOS expressed in baculovirus infected insect sf9 cells assessed as conversion of [3H]-L-arginine into [3H]-L-citrulline by radiometric method
pIC50: −log10 of the molar value.
# cutoff 6 applies to pIC50; >= gives rule met, < gives rule not met

- N=C(Nc1ccc2c(c1)CCCCN2CCN1CCCCC1)c1cccs1: rule not met
- CN1CCCC1CCN1CCCCc2cc(NC(=N)c3cccs3)ccc21 (racemic): rule not met
- N=C(Nc1ccc2c(c1)CCCCN2CCN1CCCC1)c1cccs1: rule met
- N=C(Nc1ccc2c(c1)CCCCN2C1CCNCC1)c1cccs1: rule not met
- CNCCN1CCCCc2cc(NC(=N)c3cccs3)ccc21: rule met
